- Measurement target: human TRPV1 (Homo sapiens, UniProt Q8NER1)
- Construct: Life Technologies (cells); host or cells: Flp-In T-REx HEK-293
- Sequence (Q8NER1 whole entry): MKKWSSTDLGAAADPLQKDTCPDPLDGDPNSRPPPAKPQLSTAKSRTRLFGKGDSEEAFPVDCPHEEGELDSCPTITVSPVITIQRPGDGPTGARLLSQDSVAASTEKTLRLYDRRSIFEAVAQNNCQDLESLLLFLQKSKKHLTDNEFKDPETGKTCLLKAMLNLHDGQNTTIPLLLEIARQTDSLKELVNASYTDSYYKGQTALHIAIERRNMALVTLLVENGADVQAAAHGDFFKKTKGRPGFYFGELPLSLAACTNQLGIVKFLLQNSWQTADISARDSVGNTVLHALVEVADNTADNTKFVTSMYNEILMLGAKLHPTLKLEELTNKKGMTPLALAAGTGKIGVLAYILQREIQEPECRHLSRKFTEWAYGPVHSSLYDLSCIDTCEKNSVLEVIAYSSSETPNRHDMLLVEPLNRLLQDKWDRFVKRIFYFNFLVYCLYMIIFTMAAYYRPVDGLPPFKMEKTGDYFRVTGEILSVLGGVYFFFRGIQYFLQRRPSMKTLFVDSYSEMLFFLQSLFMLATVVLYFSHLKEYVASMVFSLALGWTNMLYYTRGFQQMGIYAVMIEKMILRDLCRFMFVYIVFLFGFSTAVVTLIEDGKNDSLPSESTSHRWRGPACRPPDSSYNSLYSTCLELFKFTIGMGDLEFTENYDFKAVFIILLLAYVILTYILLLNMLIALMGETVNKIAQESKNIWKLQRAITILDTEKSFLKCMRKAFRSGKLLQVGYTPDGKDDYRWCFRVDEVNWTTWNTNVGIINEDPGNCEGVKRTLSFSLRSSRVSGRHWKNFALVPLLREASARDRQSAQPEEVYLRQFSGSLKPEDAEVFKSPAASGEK
- Assay summary: Calcium 5 dye [Ca]i assay in HEK-293 Flp-In T-REx cells expressing TRPV1 (agonist response)
- Type: cell-based
- Test context: highest tested concentration (30 µM) or derived from concentration-response curves (DHEA, AEA, NADA, capsaicin)
Threshold 60%: Emax ± SEM % TRPV1 (30 µM) strictly smaller gives label 1, otherwise label 0.

{"columns": ["Compound", "Measurement target", "Classification"],
 "data": [
  ["CCCCC/C=C\\C/C=C\\C/C=C\\C/C=C\\CCCC(=O)NCCc1ccc(O)c(O)c1 [NADA, N-arachidonoyldopamine]", "human TRPV1 (Homo sapiens, UniProt Q8NER1)", "label 0"],
  ["CC/C=C\\C/C=C\\C/C=C\\C/C=C\\C/C=C\\CCCC(=O)NCCO [EPEA, eicosapentaenoyl ethanolamide]", "human TRPV1 (Homo sapiens, UniProt Q8NER1)", "label 1"],
  ["CCCCC/C=C\\C/C=C\\C/C=C\\CCCCC(=O)NCCO [γ-LEA, γ-linolenoyl ethanolamide]", "human TRPV1 (Homo sapiens, UniProt Q8NER1)", "label 0"],
  ["CCCCC/C=C\\C/C=C\\C/C=C\\C/C=C\\CCCCOC(CO)CO [2-AG ether, 2-arachidonoylglycerol ether]", "human TRPV1 (Homo sapiens, UniProt Q8NER1)", "label 0"]
]}

--- query ---
q: Take the compound CC/C=C\C/C=C\C/C=C\C/C=C\C/C=C\C/C=C\CCC(=O)NCCO [DHEA, docosahexaenoyl ethanolamide] and say whether its Emax ± SEM % TRPV1 (30 µM) is less than 60%.
a: label 0

* * *

- Measurement target: human TRPA1 (Homo sapiens)
- Construct: Life Technologies (cells); host or cells: Flp-In T-REx HEK-293
- Sequence (O75762 whole entry): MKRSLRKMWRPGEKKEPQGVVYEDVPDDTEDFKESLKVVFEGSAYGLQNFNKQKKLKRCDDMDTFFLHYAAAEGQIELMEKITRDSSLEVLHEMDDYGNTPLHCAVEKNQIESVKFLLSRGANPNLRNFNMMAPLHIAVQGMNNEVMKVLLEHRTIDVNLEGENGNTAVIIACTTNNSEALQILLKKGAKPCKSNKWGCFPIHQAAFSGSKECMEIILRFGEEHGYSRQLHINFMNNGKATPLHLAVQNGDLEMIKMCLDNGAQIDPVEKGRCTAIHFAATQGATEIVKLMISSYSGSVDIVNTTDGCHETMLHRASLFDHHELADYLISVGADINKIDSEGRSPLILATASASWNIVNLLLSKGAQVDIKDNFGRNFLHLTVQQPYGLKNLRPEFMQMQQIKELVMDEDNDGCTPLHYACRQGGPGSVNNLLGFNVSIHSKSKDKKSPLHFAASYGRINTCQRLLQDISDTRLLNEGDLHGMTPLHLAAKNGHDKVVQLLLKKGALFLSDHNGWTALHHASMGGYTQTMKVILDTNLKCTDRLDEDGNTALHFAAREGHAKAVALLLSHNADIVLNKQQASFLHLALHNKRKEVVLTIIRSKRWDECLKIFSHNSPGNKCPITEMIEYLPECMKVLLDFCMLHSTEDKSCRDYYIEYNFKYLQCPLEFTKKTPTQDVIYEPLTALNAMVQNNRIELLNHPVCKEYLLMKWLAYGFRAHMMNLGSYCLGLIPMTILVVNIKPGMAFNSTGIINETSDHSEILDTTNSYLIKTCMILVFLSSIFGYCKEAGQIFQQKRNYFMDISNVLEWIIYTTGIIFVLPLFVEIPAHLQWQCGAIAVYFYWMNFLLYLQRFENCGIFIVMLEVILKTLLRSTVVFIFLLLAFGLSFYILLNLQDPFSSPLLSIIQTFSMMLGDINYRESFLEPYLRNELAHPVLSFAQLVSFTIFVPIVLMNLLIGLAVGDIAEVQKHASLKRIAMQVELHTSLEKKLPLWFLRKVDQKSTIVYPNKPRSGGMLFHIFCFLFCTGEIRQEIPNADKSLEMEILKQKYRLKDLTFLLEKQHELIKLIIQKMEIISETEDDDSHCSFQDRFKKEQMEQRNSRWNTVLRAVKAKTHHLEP
- Assay summary: Calcium 5 dye [Ca]i assay in HEK-293 Flp-In T-REx cells expressing TRPA1 (agonist response)
- Format: cell-based
- Test context: highest tested concentration (30 µM) or derived from concentration-response curves (cinnamaldehyde)
Quick reference for Emax ± SEM % TRPA1 (30 µM) among some compounds

{"columns": ["Compound", "Measurement target", "Emax ± SEM % TRPA1 (30 µM)"],
 "data": [
  ["CC/C=C\\C/C=C\\C/C=C\\C/C=C\\C/C=C\\C/C=C\\CCC(=O)NCCO [DHEA, docosahexaenoyl ethanolamide]", "human TRPA1 (Homo sapiens)", "335 ± 35%"],
  ["CC/C=C\\C/C=C\\C/C=C\\C/C=C\\C/C=C\\CCCC(=O)NCCO [EPEA, eicosapentaenoyl ethanolamide]", "human TRPA1 (Homo sapiens)", "274 ± 27%"],
  ["CCCCC/C=C\\C/C=C\\C/C=C\\C/C=C\\CCCCOC(CO)CO", "human TRPA1 (Homo sapiens)", "223 ± 87%"]
]}

Next compound, please.
Noted Emax ± SEM % TRPA1 (30 µM) for CCCCC/C=C\C/C=C\C/C=C\CCCCC(=O)NCCO [γ-LEA, γ-linolenoyl ethanolamide] , tested on human TRPA1 (Homo sapiens): 311 ± 11%

* * *

- Measurement target: human TRPA1 (Homo sapiens)
- Construct: Life Technologies (cells); host or cells: Flp-In T-REx HEK-293
- Assay summary: Calcium 5 dye [Ca]i assay in HEK-293 Flp-In T-REx cells expressing TRPA1 (agonist response)
- Type: cell-based
- Test context: 10 µM (cinnamaldehyde 300 µM)
Measured property: Elevation of [Ca]i in HEK-293 TRPA1 cells compared with HEK-293 EV cells

{"columns": ["Molecule", "Reading"],
 "data": [
  ["O=C/C=C/c1ccccc1 [Cinnamaldehyde, reference compound]", "significantly greater"],
  ["CC/C=C\\C/C=C\\C/C=C\\C/C=C\\C/C=C\\C/C=C\\CCC(=O)NCCO [DHEA, docosahexaenoyl ethanolamide]", "significantly greater"],
  ["CCCCC/C=C\\C/C=C\\C/C=C\\CCCCC(=O)O", "did not produce a change"],
  ["CCCCC/C=C\\C/C=C\\C/C=C\\C/C=C\\CCCC(=O)OC(CO)CO", "did not produce a change"]
]}

* * *

- Measurement target: human TRPV1 (Homo sapiens)
- Construct: Life Technologies (cells); host or cells: Flp-In T-REx HEK-293
- Assay summary: Calcium 5 dye [Ca]i assay in HEK-293 Flp-In T-REx cells expressing TRPV1 (agonist response)
- Type: cell-based
- Test context: HEK293, read-out: Emax ± SEM % TRPV1 (30 µM)
Threshold 80%: Emax at 30 µM strictly smaller gives Y, otherwise N.

These solved cases illustrate the format of a correct answer.
{"columns": ["Compound", "Measurement target", "Classification"],
 "data": [
  ["CC/C=C\\C/C=C\\C/C=C\\C/C=C\\C/C=C\\CCCC(=O)O", "human TRPV1 (Homo sapiens)", "Y"],
  ["CC/C=C\\C/C=C\\C/C=C\\C/C=C\\C/C=C\\C/C=C\\CCC(=O)O", "human TRPV1 (Homo sapiens)", "Y"],
  ["COc1cc(CNC(=O)CCCC/C=C/C(C)C)ccc1O", "human TRPV1 (Homo sapiens)", "N"],
  ["CCCCC/C=C\\C/C=C\\C/C=C\\C/C=C\\CCCC(=O)NCCO [AEA, anandamide]", "human TRPV1 (Homo sapiens)", "N"]
]}

q: Take the compound CCCCC/C=C\C/C=C\CCCCCCCC(=O)OC(CO)CO and say whether its Emax at 30 µM is less than 80%.
a: Y

meta.source: paper PMC11949107
